I'd appreciate it if you could supply pest or weed control at 121.5 g/ha values for the items below.
System: Mycosphaerella graminicola; Anamorph: Septoria tritici
Method: Leaf Blotch of Wheat (SEPTTR) fungicidal activity on wheat seedlings
Format: in vivo
Condition Context: Zymoseptoria tritici, 24 h; Low Volume, 121.5 g/H; 1 Day Protectant; read-out: SEPTTR 1DP disease control

COc1ccnc(C(=O)N[C@@H](C)C(=O)O[C@@H](C)C(c2ccc(C)c(Cl)c2)c2ccc(C)c(Cl)c2)c1OCOC(C)=O: > 80%

Okay, here is my list. What is pest or weed control at 121.5 g/ha for each of these?
1. COc1ccnc(C(=O)N[C@@H](C)C(=O)O[C@@H](C)C(c2cccc(F)c2)c2cccc(F)c2)c1OC(C)=O
2. COc1ccnc(C(=O)N[C@@H](C)C(=O)O[C@@H](C)C(c2ccc(Br)cc2)c2ccc(Br)cc2)c1OCOC(C)=O
3. COc1ccnc(C(=O)N[C@@H](C)C(=O)O[C@@H](C)[C@@H](c2ccccc2)c2ccc(F)cc2)c1OC(C)=O

Found:
1: > 80%; 2: > 80%; 3: > 80%

Give measured pest or weed control at 121.5 g/ha for every item shown.
1. COc1cccc(C(c2cccc(OC)c2)[C@H](C)OC(=O)[C@H](C)NC(=O)c2nccc(OC)c2OCOC(C)=O)c1
2. CCCCC(=O)Oc1c(OC)ccnc1C(=O)N[C@@H](C)C(=O)O[C@@H](C)C(c1ccc(F)cc1)c1ccc(F)cc1
3. COc1ccnc(C(=O)N[C@@H](C)C(=O)O[C@@H](C)[C@@H](c2ccccc2)c2ccc(F)cc2)c1OCOC(C)=O
4. CC(=O)OCOc1ccccc1C(=O)N[C@@H](C)C(=O)O[C@@H](C)C(c1ccc(F)cc1)c1ccc(F)cc1

Found:
1. > 80%
2. > 80%
3. > 80%
4. < 80%

Hey, quick one: what's pest or weed control at 121.5 g/ha for each of these?
1. COc1ccccc1C(c1ccccc1OC)[C@H](C)OC(=O)[C@H](C)NC(=O)c1nccc(OC)c1OCOC(C)=O
2. COc1ccnc(C(=O)N[C@@H](C)C(=O)O[C@@H](C)C(c2cccs2)c2cccs2)c1OCOC(C)=O
3. COc1ccnc(C(=O)N[C@@H](C)C(=O)O[C@@H](C)C(c2cccc(Cl)c2)c2cccc(Cl)c2)c1OC(C)=O
4. COc1ccnc(C(=O)N[C@H](C(=O)O[C@@H](C)C(c2ccc(F)cc2)c2ccc(F)cc2)C(C)C)c1OCOC(C)=O
5. COc1ccnc(C(=O)N[C@@H](C)C(=O)O[C@@H](C)C(c2ccc(F)c(C)c2)c2ccc(F)c(C)c2)c1OC(C)=O
6. COc1ccnc(C(=O)N[C@@H](C)C(=O)O[C@@H](C)C(c2ccc(F)c(F)c2)c2ccc(F)c(F)c2)c1OCOC(C)=O
7. COc1ccnc(C(=O)N[C@@H](C)C(=O)O[C@@H](C)C(c2ccc(C)cc2)c2ccc(C)cc2)c1OC(C)=O
8. COc1ccnc(C(=O)N[C@@H](C)C(=O)O[C@@H](C)[C@@H](c2ccccc2)c2ccc(C(F)(F)F)cc2)c1OCOC(C)=O

Found:
> 80%
< 80%
> 80%
> 80%
> 80%
> 80%
> 80%
> 80%

* * *

Tested on: Mycosphaerella graminicola; Anamorph: Septoria tritici
Method: Leaf Blotch of Wheat (SEPTTR) fungicidal activity on wheat seedlings
Format: in vivo
Condition Context: Zymoseptoria tritici, 24 h; Low Volume, 121.5 g/H; 1 Day Protectant; read-out: SEPTTR 1DP disease control
Value Type: pest or weed control at 121.5 g/ha

CCOC(c1ccccc1)(c1ccccc1)[C@H](C)OC(=O)[C@H](C)NC(=O)c1nccc(OC)c1OCOC(C)=O [Cmpd 147]: < 80%
COc1ccnc(C(=O)N[C@@H](C)C(=O)O[C@@H](C)C(c2ccc(F)cc2F)c2ccc(F)cc2F)c1OCOC(C)=O [Cmpd 148]: > 80%
COc1ccnc(C(=O)N[C@@H](C)C(=O)O[C@@H](C)C(c2ccc(Cl)c(C)c2)c2ccc(Cl)c(C)c2)c1OC(C)=O [Cmpd 206]: > 80%

Lookup: # lookup: pest or weed control at 121.5 g/ha of COc1ccnc(C(=O)N[C@@H](C)C(=O)O[C@@H](C)C(O)(c2ccccc2)c2ccccc2)c1OCOC(C)=O [Cmpd 138]
Found: > 80%

* * *

Give measured pest or weed control at 100 ppm for each item. Keep answers brief.
Test system: Puccinia triticina; Synonym: Puccinia recondita f sp. tritici
Method: Wheat Brown Rust (PUCCRT) fungicidal activity on wheat seedlings
Type: in vivo
Condition Context: 72 h; High Volume, 100 ppm; 3 Day Curative; read-out: PUCCRT 3DC disease control

COc1ccnc(C(=O)N[C@@H](C)C(=O)O[C@@H](C)C(c2ccc(Br)cc2)c2ccc(Br)cc2)c1O: < 80%

List pest or weed control at 100 ppm for every entry below, keeping the order given.
1. COc1ccnc(C(=O)N[C@@H](C)C(=O)O[C@@H](C)C(c2ccc(Cl)cc2)c2ccc(Cl)cc2)c1O
2. COc1ccnc(C(=O)N[C@@H](C)C(=O)O[C@@H](C)C(c2cccc(F)c2)c2cccc(F)c2)c1O
3. COc1cccc(C(c2cccc(OC)c2)[C@H](C)OC(=O)[C@H](C)NC(=O)c2nccc(OC)c2O)c1

Found:
1. < 80%
2. < 80%
3. > 80%

Record pest or weed control at 100 ppm for all entries; do not skip any.
1. COc1ccnc(C(=O)N[C@@H](C)C(=O)O[C@@H](C)C(c2ccccc2)c2ccccc2)c1O
2. COc1ccnc(C(=O)NCC(=O)O[C@@H](C)C(c2ccc(F)cc2)c2ccc(F)cc2)c1O
3. COc1ccnc(C(=O)N[C@@H](C)C(=O)O[C@@H](C)C(c2ccc(C)c(Cl)c2)c2ccc(C)c(Cl)c2)c1O
4. COc1ccnc(C(=O)N[C@@H](C)C(=O)O[C@@H](C)[C@@H](c2ccccc2)c2ccc(F)cc2)c1O
5. CCc1ccc(C(c2ccc(CC)cc2)[C@H](C)OC(=O)[C@H](C)NC(=O)c2nccc(OC)c2O)cc1
6. COc1ccnc(C(=O)N[C@@H](C)C(=O)O[C@@H](C)C(c2cccs2)c2cccs2)c1O
7. COc1ccnc(C(=O)N[C@@H](C)C(=O)O[C@@H](C)C(c2cccc(Cl)c2)c2cccc(Cl)c2)c1O

Found:
["> 80%", "< 80%", "< 80%", "> 80%", "> 80%", "< 80%", "> 80%"]

For each of the molecules below, state pest or weed control at 100 ppm.
1. COc1ccnc(C(=O)N[C@@H](C)C(=O)O[C@@H](C)C(c2ccc(F)cc2F)c2ccc(F)cc2F)c1O
2. COc1ccnc(C(=O)N[C@@H](C)C(=O)O[C@@H](C)C(c2ccc(C)c(F)c2)c2ccc(C)c(F)c2)c1O
3. COc1ccnc(C(=O)N[C@@H](C)C(=O)O[C@@H](C)C(c2ccc(F)c(Cl)c2)c2ccc(F)c(Cl)c2)c1O
4. COc1ccccc1C(c1ccccc1OC)[C@H](C)OC(=O)[C@H](C)NC(=O)c1nccc(OC)c1O
5. COc1ccnc(C(=O)N[C@@H](C)C(=O)O[C@@H](C)C(c2ccc(Cl)c(C)c2)c2ccc(Cl)c(C)c2)c1O
6. COc1ccnc(C(=O)N[C@@H](C)C(=O)O[C@@H](C)C(c2ccc(C)cc2)c2ccc(C)cc2)c1O
7. CC[C@H](NC(=O)c1nccc(OC)c1O)C(=O)O[C@@H](C)C(c1ccc(F)cc1)c1ccc(F)cc1
8. COc1ccc(C(c2ccc(OC)cc2)[C@H](C)OC(=O)[C@H](C)NC(=O)c2nccc(OC)c2O)cc1

Found:
1: > 80%; 2: < 80%; 3: < 80%; 4: < 80%; 5: < 80%; 6: > 80%; 7: > 80%; 8: > 80%

Lookup: Form field: reported pest or weed control at 100 ppm of COc1ccnc(C(=O)N[C@@H](C)C(=O)O[C@@H](C)C(c2ccc(F)cc2)c2ccc(F)cc2)c1O
Found: > 80%

* * *

Test system: Mycosphaerella graminicola; Anamorph: Septoria tritici
Method: Leaf Blotch of Wheat (SEPTTR) fungicidal activity on wheat seedlings
Assay type: in vivo
Condition Context: Zymoseptoria tritici, 72 h; High Volume, 100 ppm; 3 Day Curative; read-out: SEPTTR 3DC disease control
Value Type: pest or weed control at 100 ppm

Give me pest or weed control at 100 ppm for each of these compounds, listed below.
1. COc1ccnc(C(=O)N[C@@H](C)C(=O)O[C@@H](C)C(c2ccc(C)c(Cl)c2)c2ccc(C)c(Cl)c2)c1O
2. COc1ccc(C(c2ccc(OC)cc2)[C@H](C)OC(=O)[C@H](C)NC(=O)c2nccc(OC)c2O)cc1
3. C[C@H](NC(=O)c1ccccc1O)C(=O)O[C@@H](C)C(c1ccc(F)cc1)c1ccc(F)cc1

Found:
> 80%
> 80%
< 80%

Lookup: // pest or weed control at 100 ppm lookup, key: COc1ccccc1C(c1ccccc1OC)[C@H](C)OC(=O)[C@H](C)NC(=O)c1nccc(OC)c1O
Found: > 80%
